Tested on: C. glabrata clinical strains
measurement-protocol: MIC, clinical yeast strains
Format: cell-based, Candida glabrata
Design: unit: µg/ml
condition-info: C. glabrata clinical yeast strain 4
Square brackets hold non-standard residues; d marks the D form. Peptide text beside a SMILES is read from it.
measured-attribute: Minimum inhibitory concentration
Respond numerically, and do not add a unit to the figure.

# molecule CC(C)C[C@@H](NC(=O)[C@@H](CCCCN)NC(=O)[C@@H](CCCCN)NC(=O)[C@@H](Cc1ccccc1)NC(=O)[C@@H](CC(C)C)NC(=O)[C@@H](Cc1c[nH]c2ccccc12)NC(=O)[C@@H](CCCNC(=N)N)NC(=O)[C@@H](Cc1c[nH]c2ccccc12)NC(=O)[C@@H](CCCCN)NC(=O)[C@@H](CCCNC(=N)N)NC(=O)[C@H](N)CCCCN)C(=O)O [Chain310D] (H-[dK][dR][dK][dW][dR][dW][dL][dF][dK][dK][dL]-OH) ; its Minimum inhibitory concentration = 128

# molecule CC[C@@H](C)[C@@H](NC(=O)[C@@H](Cc1c[nH]c2ccccc12)NC(=O)[C@H](N)CCCCN)C(=O)N[C@@H](C(=O)N[C@H](Cc1c[nH]c2ccccc12)C(=O)N[C@H](CCCNC(=N)N)C(=O)N[C@H](Cc1c[nH]c2ccccc12)C(=O)N[C@H](CCCNC(=N)N)C(=O)N[C@H](Cc1ccccc1)C(=O)N[C@H](CCCCN)C(=O)N[C@H](CCCNC(=N)N)C(=O)O)C(C)C [Chain201D] (H-[dK][dW][dI][dV][dW][dR][dW][dR][dF][dK][dR]-OH) ; its Minimum inhibitory concentration = 64

# molecule CC(C)C[C@@H](NC(=O)[C@H](N)CCCNC(=N)N)C(=O)N[C@H](CCCCN)C(=O)N[C@H](Cc1c[nH]c2ccccc12)C(=O)N[C@H](Cc1ccccc1)C(=O)N[C@H](Cc1c[nH]c2ccccc12)C(=O)N[C@H](CC(C)C)C(=O)N[C@H](Cc1ccccc1)C(=O)N[C@H](CCCNC(=N)N)C(=O)N[C@H](CCCCN)C(=O)N[C@H](CCCNC(=N)N)C(=O)O [Chain307D] (H-[dR][dL][dK][dW][dF][dW][dL][dF][dR][dK][dR]-OH) ; its Minimum inhibitory concentration = 16

###

System: Serratia marcescens clinical strains
Format: cell-based
Set-up: unit: μg/ml
condition-info: Serratia marcescens clinical strain 5; microdilution, Muller Hinton broth-cation adjusted, 0.02% BSA, 0.2% acetic acid
Square brackets hold non-standard residues; d marks the D form. Peptide text beside a SMILES is read from it.
measured-attribute: Minimum inhibitory concentration

# molecule CC[C@@H](C)[C@@H](NC(=O)[C@@H](CC(C)C)NC(=O)[C@@H](CCCNC(=N)N)NC(=O)[C@H](N)CCCNC(=N)N)C(=O)N[C@H](Cc1c[nH]c2ccccc12)C(=O)N[C@H](CCCNC(=N)N)C(=O)N[C@H](CCCNC(=N)N)C(=O)N[C@H](Cc1ccccc1)C(=O)N[C@H](CCCCN)C(=O)N[C@H](Cc1c[nH]c2ccccc12)C(=O)N[C@H](CC(C)C)C(=O)N[C@H](CCCNC(=N)N)C(=O)O [Chain204D] (H-[dR][dR][dL][dI][dW][dR][dR][dF][dK][dW][dL][dR]-OH) ; its Minimum inhibitory concentration = >128

###

Test system: Streptococcus pneumoniae clinical strains
Assay type: cell-based
Design: unit: μg/ml
condition-info: Streptococcus pneumoniae clinical strain 1; microdilution, Muller Hinton broth-cation adjusted, 0.02% BSA, 0.2% acetic acid
Square brackets hold non-standard residues; d marks the D form. Peptide text beside a SMILES is read from it.
measured-attribute: Minimum inhibitory concentration
Respond numerically, and do not add a unit to the figure.

# molecule CC(C)C[C@@H](NC(=O)[C@@H](CCCCN)NC(=O)[C@@H](CCCCN)NC(=O)[C@@H](Cc1ccccc1)NC(=O)[C@@H](CC(C)C)NC(=O)[C@@H](Cc1c[nH]c2ccccc12)NC(=O)[C@@H](CCCNC(=N)N)NC(=O)[C@@H](Cc1c[nH]c2ccccc12)NC(=O)[C@@H](CCCCN)NC(=O)[C@@H](CCCNC(=N)N)NC(=O)[C@H](N)CCCCN)C(=O)O [Chain310D] (H-[dK][dR][dK][dW][dR][dW][dL][dF][dK][dK][dL]-OH) ; its Minimum inhibitory concentration = 128

# molecule CC(C)C[C@@H](NC(=O)[C@@H](Cc1c[nH]c2ccccc12)NC(=O)[C@@H](Cc1ccccc1)NC(=O)[C@@H](Cc1c[nH]c2ccccc12)NC(=O)[C@@H](CCCCN)NC(=O)[C@@H](CCCNC(=N)N)NC(=O)[C@H](N)Cc1c[nH]c2ccccc12)C(=O)N[C@H](Cc1ccccc1)C(=O)N[C@H](CCCCN)C(=O)N[C@H](CCCCN)C(=O)N[C@H](CCCNC(=N)N)C(=O)O [Chain309D] (H-[dW][dR][dK][dW][dF][dW][dL][dF][dK][dK][dR]-OH) ; its Minimum inhibitory concentration = 64

# molecule CC[C@@H](C)[C@@H](NC(=O)[C@@H](CC(C)C)NC(=O)[C@@H](CCCNC(=N)N)NC(=O)[C@H](N)CCCNC(=N)N)C(=O)N[C@H](Cc1c[nH]c2ccccc12)C(=O)N[C@H](CCCNC(=N)N)C(=O)N[C@H](CCCNC(=N)N)C(=O)N[C@H](Cc1ccccc1)C(=O)N[C@H](CCCCN)C(=O)N[C@H](Cc1c[nH]c2ccccc12)C(=O)N[C@H](CC(C)C)C(=O)N[C@H](CCCNC(=N)N)C(=O)O [Chain204D] (H-[dR][dR][dL][dI][dW][dR][dR][dF][dK][dW][dL][dR]-OH) ; its Minimum inhibitory concentration = 4

###

Would you mind telling me the reported Minimum inhibitory concentration of each entry?
Tested on: Klebsiella pneumoniae clinical strains
Format: cell-based
condition-info: Klebsiella pneumoniae clinical strain 5; microdilution, Muller Hinton broth-cation adjusted, 0.02% BSA, 0.2% acetic acid
Square brackets hold non-standard residues; d marks the D form. Peptide text beside a SMILES is read from it.
Respond numerically, and do not add a unit to the figure.

# molecule CC(C)C[C@@H](NC(=O)[C@H](N)CCCNC(=N)N)C(=O)N[C@H](CCCCN)C(=O)N[C@H](Cc1c[nH]c2ccccc12)C(=O)N[C@H](Cc1ccccc1)C(=O)N[C@H](Cc1c[nH]c2ccccc12)C(=O)N[C@H](CC(C)C)C(=O)N[C@H](Cc1ccccc1)C(=O)N[C@H](CCCNC(=N)N)C(=O)N[C@H](CCCCN)C(=O)N[C@H](CCCNC(=N)N)C(=O)O [Chain307D] (H-[dR][dL][dK][dW][dF][dW][dL][dF][dR][dK][dR]-OH) ; its Minimum inhibitory concentration = 4

# molecule CC(C)C[C@@H](NC(=O)[C@@H](Cc1c[nH]c2ccccc12)NC(=O)[C@@H](Cc1ccccc1)NC(=O)[C@@H](Cc1c[nH]c2ccccc12)NC(=O)[C@@H](CCCCN)NC(=O)[C@@H](CCCNC(=N)N)NC(=O)[C@H](N)Cc1c[nH]c2ccccc12)C(=O)N[C@H](Cc1ccccc1)C(=O)N[C@H](CCCCN)C(=O)N[C@H](CCCCN)C(=O)N[C@H](CCCNC(=N)N)C(=O)O [Chain309D] (H-[dW][dR][dK][dW][dF][dW][dL][dF][dK][dK][dR]-OH) ; its Minimum inhibitory concentration = 128

# molecule CC[C@@H](C)[C@@H](NC(=O)[C@@H](CC(C)C)NC(=O)[C@@H](CCCNC(=N)N)NC(=O)[C@H](N)CCCNC(=N)N)C(=O)N[C@H](Cc1c[nH]c2ccccc12)C(=O)N[C@H](CCCNC(=N)N)C(=O)N[C@H](CCCNC(=N)N)C(=O)N[C@H](Cc1ccccc1)C(=O)N[C@H](CCCCN)C(=O)N[C@H](Cc1c[nH]c2ccccc12)C(=O)N[C@H](CC(C)C)C(=O)N[C@H](CCCNC(=N)N)C(=O)O [Chain204D] (H-[dR][dR][dL][dI][dW][dR][dR][dF][dK][dW][dL][dR]-OH) ; its Minimum inhibitory concentration = 2

###

Tested on: C. glabrata clinical strains
measurement-protocol: MIC, clinical yeast strains
Assay type: cell-based, Candida glabrata
Parameters: unit: µg/ml
condition-info: C. glabrata clinical yeast strain 4
Square brackets hold non-standard residues; d marks the D form. Peptide text beside a SMILES is read from it.
measured-attribute: Minimum inhibitory concentration
Respond numerically, and do not add a unit to the figure.

# compound CC(C)C[C@@H](NC(=O)[C@@H](Cc1c[nH]c2ccccc12)NC(=O)[C@@H](Cc1ccccc1)NC(=O)[C@@H](Cc1c[nH]c2ccccc12)NC(=O)[C@@H](CCCCN)NC(=O)[C@@H](CCCNC(=N)N)NC(=O)[C@H](N)Cc1c[nH]c2ccccc12)C(=O)N[C@H](Cc1ccccc1)C(=O)N[C@H](CCCCN)C(=O)N[C@H](CCCCN)C(=O)N[C@H](CCCNC(=N)N)C(=O)O [Chain309D] (H-[dW][dR][dK][dW][dF][dW][dL][dF][dK][dK][dR]-OH) ; its Minimum inhibitory concentration = 128

# compound CC(C)C[C@@H](NC(=O)[C@H](N)CCCCN)C(=O)N[C@H](CCCCN)C(=O)N[C@H](Cc1c[nH]c2ccccc12)C(=O)N[C@H](Cc1ccccc1)C(=O)N[C@H](Cc1c[nH]c2ccccc12)C(=O)N[C@H](CC(C)C)C(=O)N[C@H](Cc1ccccc1)C(=O)N[C@H](CCCCN)C(=O)N[C@H](CCCCN)C(=O)N[C@H](CCCNC(=N)N)C(=O)O [Chain311D] (H-[dK][dL][dK][dW][dF][dW][dL][dF][dK][dK][dR]-OH) ; its Minimum inhibitory concentration = 64
